tested on: Caco-2; test: Cellular uptake in human Caco2 cells assessed as uptake rate measured per mg of protein at 1 to 100 uM at 4 to 37 degC after 20 mins by Eadie-Hofstee plot method; assay type: ADME, cell-based; settings: caco-2, 20 min
value kind: Vmax (nmol/min/mg)
Output spec: scalar in nmol/min/mg, unitless text.

Inquiry: State, in one line, measured Vmax of "C[C@H](CCC(=O)O)[C@H]1CC[C@H]2[C@@H]3CC[C@@H]4C[C@H](Nc5ccc([N+](=O)[O-])c6nonc56)CC[C@]4(C)[C@H]3C[C@H](O)[C@]12C"
Reply text: 1.8

###

assay: Cellular uptake in human Caco2 cells assessed as uptake rate at 1 to 100 uM at 4 to 37 degC after 20 mins by Eadie-Hofstee plot method; format: ADME, cell-based; settings: Caco-2 cells
value kind: Km at 20 min, up to 100 µM (µM)
Write down the numeric answer in µM and omit the unit.

Inquiry: Determine from records and report Km at 20 min, up to 100 µM for "C[C@H](CCC(=O)O)[C@H]1CC[C@H]2[C@@H]3CC[C@@H]4C[C@H](Nc5ccc([N+](=O)[O-])c6nonc56)CC[C@]4(C)[C@H]3C[C@H](O)[C@]12C"
Reply text: 28.2

Origin of the recorded values: ChEMBL document CHEMBL2203272
